Values from paper PMC7305997

I'd appreciate it if you could supply stoichiometry N values for the items below.
# measured on: T1, Full length human CIB1 (calcium and integrin binding protein 1), N-terminal hexahistidine tag (human, UniProt Q99828 1-191)
# T1 sequence (looked up): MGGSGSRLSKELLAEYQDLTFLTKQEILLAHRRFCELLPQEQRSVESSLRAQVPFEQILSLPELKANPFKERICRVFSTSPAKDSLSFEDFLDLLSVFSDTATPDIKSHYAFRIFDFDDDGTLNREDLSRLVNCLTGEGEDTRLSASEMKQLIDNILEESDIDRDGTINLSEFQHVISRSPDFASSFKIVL
# protocol description: ITC
Ends that are not written are not given here.
# print the numeric value only

Give its stoichiometry N value. Item: Ac-EDGGSFWYGAMKALYG [Acetyl long (Ac-EDGGSFWYGAMKALYG)]
1.1

Next entry: EDGGSFWAGAMKALYG [UNC10245092 Y3A]
1

Subsequent entry: Ac-FWYGAMKALYG [Acetyl short (Ac-FWYGAMKALYG)]
1.1

Moving on to EDGGSAWYGAMKALYG [UNC10245092 F1A]
0.94
